biological target: recombinant human DPP-1 (Cathepsin C) (Homo sapiens); assay: DPP-1 Inhibition Assay (in vitro), fluorogenic substrate GR-AMC; details: 0.15 nM DPP-1, 10 uM GR-AMC, pH 7.0, room temperature; average value where tested multiple times
pIC50: −log10 of the molar value.
The threshold is inclusive: pIC50 of exactly 6 counts as Met; values below receive Not met.

Solved entries (count: 6):
compound	assigned-label
N[C@@H](Cc1cccs1)C(=O)N1CCC(c2cc3cc(-c4cccnc4)ccc3[nH]2)CC1 [Compound 23]	Met
CC[C@H](N)C(=O)NCCc1cc2cc(C(=O)Nc3ccc(OC)c(OC)c3)ccc2[nH]1 [Compound 36]	Not met
N[C@@H](Cc1cccs1)C(=O)N1CCC(c2cc3cc(-c4ccncc4)ccc3[nH]2)CC1 [Compound 26]	Met
COc1ccc(-c2ccc3[nH]c(C4CCN(C(=O)[C@@H](N)Cc5nc(C)cs5)CC4)cc3c2)cc1OC [Compound 22]	Not met
N[C@@H](Cc1cccs1)C(=O)N1CCC(c2cc3cc(-c4cccc(C(=O)O)c4)ccc3[nH]2)CC1 [Compound 21]	Met
CC[C@H](N)C(=O)NCCCc1cc2ccc(C(=O)N(CC)CC)cc2o1 [Compound 46]	Not met

Note: attention shifts to another entry.
Is it the case that CC[C@H](N)C(=O)NCCCc1cc2cc(C(=O)Nc3ccc(OC)cc3)ccc2[nH]1 [Compound 77] has pIC50 reaching or exceeding 6?
Met

---

biological target: recombinant human DPP-1 (Cathepsin C) (Homo sapiens, UniProt P53634); test: DPP-1 Inhibition Assay (in vitro), fluorogenic substrate GR-AMC; conditions: 0.15 nM DPP-1, 10 uM GR-AMC, pH 7.0, room temperature; average value where tested multiple times
Sequence (P53634 25-463): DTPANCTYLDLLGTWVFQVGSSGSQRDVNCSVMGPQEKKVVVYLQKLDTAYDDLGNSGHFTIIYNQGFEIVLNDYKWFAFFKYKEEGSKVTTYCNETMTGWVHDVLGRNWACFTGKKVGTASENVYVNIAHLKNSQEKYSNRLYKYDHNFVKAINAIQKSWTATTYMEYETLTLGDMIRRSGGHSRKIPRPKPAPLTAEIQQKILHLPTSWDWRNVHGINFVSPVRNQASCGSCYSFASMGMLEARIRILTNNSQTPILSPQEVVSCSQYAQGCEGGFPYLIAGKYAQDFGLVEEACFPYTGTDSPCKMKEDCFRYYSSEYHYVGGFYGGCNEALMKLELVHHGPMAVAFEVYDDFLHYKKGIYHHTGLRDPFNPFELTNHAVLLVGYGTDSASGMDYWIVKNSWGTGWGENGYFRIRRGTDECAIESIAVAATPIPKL
reported-property: IC50

compound	IC50
COc1ccc(-c2ccc3[nH]c(C4CCN(C(=O)C(N)c5ccsc5)CC4)cc3c2)cc1OC (stereo not drawn) [Compound 30]	> 20 µM
CC[C@H](N)C(=O)NCCCc1cc2cc(C(=O)Nc3ccc(OC)c(OC)c3)ccc2[nH]1 (single isomer, unassigned) [Compound 110]	> 10 µM

Attention now turns to another entry.
Checklist item: IC50 tested on recombinant human DPP-1 (Cathepsin C) (Homo sapiens, UniProt P53634), entry CC[C@H](N)C(=O)NCCCc1cc2cc(C(=O)O)ccc2o1 [Compound 74] , value?
> 10 µM

---

target: recombinant human DPP-1 (Cathepsin C) (Homo sapiens); test: DPP-1 Inhibition Assay (in vitro), fluorogenic substrate GR-AMC; conditions: 0.15 nM DPP-1, 10 uM GR-AMC, pH 7.0, room temperature; average value where tested multiple times
reported-property: pIC50
Numbers only, as −log10 of the molar value.

Sample records with pIC50:
compound	pIC50
N[C@@H](Cc1cccs1)C(=O)NCCCc1cc2ccccc2o1	5.96
CC[C@H](N)C(=O)NCCCc1cc2cc(C(=O)Nc3cccc(C)c3)ccc2[nH]1	6.04
N[C@@H](Cc1cccs1)C(=O)N1CCC(c2cc3cc(-c4ccc5c(c4)OCO5)ccc3[nH]2)CC1	6.59
N[C@@H](Cc1cccs1)C(=O)NCCc1cc2ccccc2o1	5.89
CC[C@H](N)C(=O)NCCCc1cc2cc(C(=O)Nc3ccc(C(C)(C)C)cc3)ccc2[nH]1	6.04
CC[C@H](N)C(=O)NCCCc1cc2cc(C(=O)Nc3cccc4ccncc34)ccc2o1	6.15
CC[C@H](N)C(=O)NCCCc1cc2cc(C(=O)Nc3cc[nH]n3)ccc2[nH]1	5.37
CC[C@H](N)C(=O)NCCCc1cc2cc(C(=O)Nc3cccc4[nH]cnc34)ccc2o1	5.62

Please give pIC50, item by item, for the list that follows.
1. N#Cc1cccc(-c2ccc3[nH]c(C4CCN(C(=O)[C@@H](N)Cc5cccs5)CC4)cc3c2)c1
2. N[C@@H](Cc1cccs1)C(=O)N1CCC(c2cc3ccccc3o2)CC1
3. CC[C@H](N)C(=O)NCCCc1cc2cc(-c3ccc(OC(F)(F)F)cc3)ccc2[nH]1
4. CC[C@H](N)C(=O)NCCCc1cc2cc(C(=O)Nc3cccc4cnccc34)ccc2o1
5. CC[C@H](N)C(=O)NCCCc1cc2cc(C(=O)Nc3cc(OC)cc(OC)c3)ccc2o1
6. CC[C@H](N)C(=O)N1CCC(c2cc3cc(-c4ccc(OC)c(OC)c4)ccc3[nH]2)CC1
7. CC[C@H](N)C(=O)NCCCc1cc2cc(C(=O)Nc3ccc(C)cc3)ccc2[nH]1

[6.70, 5.92, 6.07, 6.32, 5.82, 5.43, 5.96]

Please give pIC50, item by item, for the list that follows.
1. CC[C@H](N)C(=O)NCCCc1cc2ccccc2n1C
2. CC[C@H](N)C(=O)NCCCc1cc2cc(Oc3ccccc3)ccc2[nH]1
3. N[C@@H](Cc1cccs1)C(=O)NCCc1nc2ccccc2[nH]1
4. CC[C@H](N)C(=O)NCCCc1cc2cc(C(=O)NC3CCNc4ccccc43)ccc2o1 (some centres unmarked)

5.20
6.32
5.37
5.74
